# assayed-target: human PIM1 (Homo sapiens)
# Construct: Purified full-length human SYK, ZAP70, PIM1, PYK2; purchased Carna Biosciences
# Sequence (P11309 whole entry): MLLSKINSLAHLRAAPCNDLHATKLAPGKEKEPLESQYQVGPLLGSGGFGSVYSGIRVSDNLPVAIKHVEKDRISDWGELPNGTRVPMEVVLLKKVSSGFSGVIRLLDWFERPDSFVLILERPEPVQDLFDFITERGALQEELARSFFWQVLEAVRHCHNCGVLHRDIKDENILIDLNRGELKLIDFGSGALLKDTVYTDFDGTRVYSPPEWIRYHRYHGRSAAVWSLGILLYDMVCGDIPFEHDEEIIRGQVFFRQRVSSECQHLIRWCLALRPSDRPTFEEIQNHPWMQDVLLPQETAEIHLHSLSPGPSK
# assay-method-text: Inhibition of enzymatic kinase activity (LANCE Ulight)
# Format: biochemical
# test-parameters: at 1 μM concentration; read-out: PIM1 percentage inhibition
Structures can show the parent of a compound that is named as a salt.
experimental-readout: inhibition at 1 µM (%)

Solved cases (4 shown):
Return reported inhibition at 1 µM; argument: NC1CCC(Nc2nc(Nc3cccc(C(F)(F)F)c3)c3c(=O)[nH]ccc3n2)CC1 (stereo not drawn)
64

What would you report for CS(=O)(=O)c1ccc(Nc2nc(N3CCC(O)CC3)nc3cc[nH]c(=O)c23)cc1 ?
12.7

What would you report for O=c1[nH]ccc2nc(N3CCC(O)CC3)nc(Nc3cccc(C(F)(F)F)c3)c12 ?
32

What would you report for N[C@@H]1CCN(c2nc(Nc3cccc(C(F)(F)F)c3)c3c(=O)[nH]ccc3n2)C1 [Compound 7, hydrochloride] ?
51.4

A. NC1CCN(c2nc(Nc3cccc(Br)c3)c3c(=O)[nH]ccc3n2)CC1 [Compound 84, hydrochloride]
B. Cn1ccc2nc(N3CCC(O)CC3)nc(Nc3cccc(C(F)(F)F)c3)c2c1=O
Higher inhibition at 1 µM: A or B ? Indicate your choice by writing its label.
A

----------
# System: HT29
# assay-method-text: cells
# Type: cell-based
# test-parameters: Homo sapiens, HT-29; HT29 (Colon Cancer)
experimental-readout: pIC50
Please report pIC50 as the negative decimal logarithm of the molar concentration, giving only the number.

Return reported pIC50; argument: O=c1[nH]ccc2nc(N3CCC(O)CC3)nc(Nc3cccc(C(F)(F)F)c3)c12 [Compound 6]
5.15

----------
# Test system: EKVX
# assay-method-text: cells
# Format: cell-based
# test-parameters: Homo sapiens; EKVX (NSCLC)
experimental-readout: pIC50
Please report pIC50 as the negative decimal logarithm of the molar concentration, giving only the number.

Return reported pIC50; argument: O=c1[nH]ccc2nc(N3CCC(O)CC3)nc(Nc3cccc(C(F)(F)F)c3)c12
5.12

----------
# assayed-target: truncated human FAK (Homo sapiens, UniProt Q05397)
# Construct: truncated human FAK, RET, FLT3, JAK2, and LRRK2 (CARNA BIOSCIENCES™); purchased Carna Biosciences
# Sequence (Q05397 376-1052 limits assumed): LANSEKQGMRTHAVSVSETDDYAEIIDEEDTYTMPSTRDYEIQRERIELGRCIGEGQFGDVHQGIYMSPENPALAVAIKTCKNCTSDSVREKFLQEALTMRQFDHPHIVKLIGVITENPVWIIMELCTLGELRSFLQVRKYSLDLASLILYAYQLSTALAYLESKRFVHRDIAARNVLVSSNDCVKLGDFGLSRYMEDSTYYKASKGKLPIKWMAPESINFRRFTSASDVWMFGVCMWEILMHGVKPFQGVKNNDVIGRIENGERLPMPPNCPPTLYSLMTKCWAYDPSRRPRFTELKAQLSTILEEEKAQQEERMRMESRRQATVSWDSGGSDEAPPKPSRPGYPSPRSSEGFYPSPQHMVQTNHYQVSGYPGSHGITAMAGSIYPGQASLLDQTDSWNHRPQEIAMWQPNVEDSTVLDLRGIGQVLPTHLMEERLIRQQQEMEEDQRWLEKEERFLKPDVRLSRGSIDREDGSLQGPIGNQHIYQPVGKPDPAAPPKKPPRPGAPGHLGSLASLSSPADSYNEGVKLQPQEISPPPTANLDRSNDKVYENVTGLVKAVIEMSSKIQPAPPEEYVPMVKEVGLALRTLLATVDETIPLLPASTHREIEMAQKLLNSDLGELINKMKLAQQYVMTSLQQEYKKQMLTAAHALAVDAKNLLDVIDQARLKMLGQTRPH
# assay-method-text: Inhibition of enzymatic kinase activity (LANCE Ulight)
# Assay type: biochemical
# test-parameters: at 1 μM concentration; read-out: FAK percentage inhibition
Counter-ions that a name gives are not always drawn.
experimental-readout: inhibition at 1 µM (%)

Solved cases (5 shown):
Return reported inhibition at 1 µM; argument: N[C@@H]1CCCC[C@H]1Nc1nc(Nc2cc(C(F)(F)F)cc(C(F)(F)F)c2)c2c(=O)[nH]ccc2n1
21.9

What would you report for NC1CCC(Nc2nc(Nc3cccc(C(F)(F)F)c3)c3c(=O)[nH]ccc3n2)CC1 (stereo not shown) ?
83

What would you report for NC1CCN(c2nc(Nc3cccc(Br)c3)c3c(=O)[nH]ccc3n2)CC1 [Compound 84, hydrochloride] ?
92.9

What would you report for CS(=O)(=O)c1ccc(Nc2nc(N3CCC(O)CC3)nc3cc[nH]c(=O)c23)cc1 ?
80.8

What would you report for O=c1[nH]ccc2nc(N3CCC(O)CC3)nc(Nc3cccc(C(F)(F)F)c3)c12 ?
78

a. Cn1ccc2nc(N3CCC(O)CC3)nc(Nc3cccc(C(F)(F)F)c3)c2c1=O
b. N[C@@H]1CCN(c2nc(Nc3cccc(C(F)(F)F)c3)c3c(=O)[nH]ccc3n2)C1 [Compound 7, hydrochloride]
Record comparison, field inhibition at 1 µM: mark the lower of a and b . Indicate your choice by writing its label.
a
